- target or system: rat mGluR5 (Rattus norvegicus, UniProt P31424)
- Sequence (P31424 21-1203): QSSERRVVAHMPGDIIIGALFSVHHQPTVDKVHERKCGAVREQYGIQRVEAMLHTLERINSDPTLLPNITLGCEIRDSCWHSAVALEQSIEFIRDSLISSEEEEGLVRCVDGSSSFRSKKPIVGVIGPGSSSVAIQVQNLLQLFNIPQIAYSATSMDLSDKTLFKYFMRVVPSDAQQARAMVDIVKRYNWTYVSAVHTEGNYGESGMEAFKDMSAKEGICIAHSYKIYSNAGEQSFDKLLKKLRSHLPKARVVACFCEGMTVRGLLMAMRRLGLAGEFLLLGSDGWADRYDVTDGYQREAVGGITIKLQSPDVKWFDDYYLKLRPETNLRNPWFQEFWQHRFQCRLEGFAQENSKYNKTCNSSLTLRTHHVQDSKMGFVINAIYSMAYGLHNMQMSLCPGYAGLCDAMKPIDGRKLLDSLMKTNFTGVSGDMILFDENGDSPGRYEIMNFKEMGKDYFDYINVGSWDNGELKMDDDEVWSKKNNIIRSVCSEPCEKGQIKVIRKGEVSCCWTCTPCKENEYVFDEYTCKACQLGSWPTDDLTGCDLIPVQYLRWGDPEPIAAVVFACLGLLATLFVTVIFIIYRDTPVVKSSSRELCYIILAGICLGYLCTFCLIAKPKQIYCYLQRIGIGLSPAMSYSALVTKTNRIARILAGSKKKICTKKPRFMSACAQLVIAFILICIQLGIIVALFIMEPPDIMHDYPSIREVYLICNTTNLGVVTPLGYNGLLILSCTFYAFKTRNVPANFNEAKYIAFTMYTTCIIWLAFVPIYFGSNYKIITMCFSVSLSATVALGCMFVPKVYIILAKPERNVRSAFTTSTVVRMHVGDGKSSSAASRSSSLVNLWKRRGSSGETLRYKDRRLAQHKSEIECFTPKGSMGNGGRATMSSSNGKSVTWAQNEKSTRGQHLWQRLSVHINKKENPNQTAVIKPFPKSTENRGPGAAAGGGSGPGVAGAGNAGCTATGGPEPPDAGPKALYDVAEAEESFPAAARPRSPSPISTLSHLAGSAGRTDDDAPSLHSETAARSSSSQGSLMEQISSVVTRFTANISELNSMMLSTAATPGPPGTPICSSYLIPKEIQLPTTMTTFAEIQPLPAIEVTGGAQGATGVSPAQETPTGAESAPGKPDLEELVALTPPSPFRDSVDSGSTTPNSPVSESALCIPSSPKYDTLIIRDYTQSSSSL
quantity measured: Kd (nM)
Reply with just the number (in nM).

Value lookup for Kd; key = CON=C1C=C(C#Cc2cccc(C)n2)CCC1 [[^3H]ABP688]
1.7
